# Assayed system: human PD-1 / PD-L1-Ig binding on Jurkat cell line over-expressing human PD-1 (Jurkat-PD-1) (Homo sapiens, UniProt Q15116)
# Construct: expressed in transfected cells; host or cells: Jurkat
# Sequence (Q15116 25-288): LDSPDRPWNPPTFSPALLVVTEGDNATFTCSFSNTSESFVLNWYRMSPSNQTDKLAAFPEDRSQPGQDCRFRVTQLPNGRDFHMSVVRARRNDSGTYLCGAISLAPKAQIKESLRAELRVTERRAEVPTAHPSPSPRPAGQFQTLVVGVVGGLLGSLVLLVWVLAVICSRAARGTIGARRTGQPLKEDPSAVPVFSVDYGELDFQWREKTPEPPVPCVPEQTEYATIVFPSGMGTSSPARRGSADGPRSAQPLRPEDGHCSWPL
# Assay remarks: Jurkat-PD-1 Cell Binding High-Content Screening Assay (CBA)
# Format: cell-based
# Recorded conditions: Jurkat HPD1_PDL1 IC50, Jurkat-PD-1 cells, PE-labeled PD-L1-Ig 20 nM final
Experimental endpoint: IC50 (µM)
Return type: number; implicit unit µM.

Value lookup for IC50; key = CC(C)C[C@H]1NC(=O)[C@H](CCCN)NC(=O)[C@H](CCCNC(N)=O)NC(=O)[C@H](Cc2ccc(-c3ccccc3)cc2)NC(=O)[C@H](C(C)C)NC(=O)[C@H](Cc2c[nH]c3ccccc23)NC(=O)[C@H](CC(=O)O)NC(=O)[C@H](Cc2ccc(OCC(=O)O)cc2)NC(=O)[C@H](Cc2ccc(OCC(=O)O)cc2)NC(=O)CSC[C@@H](C(=O)N[C@@H](C)C(N)=O)NC(=O)[C@H]([C@@H](C)O)NC(=O)[C@H](C(C)C)NC(=O)[C@H](CC2CCCCC2)NC(=O)[C@H](Cc2c[nH]cn2)NC1=O
0.0194

Value lookup for IC50; key = CC[C@H](C)[C@@H]1NC(=O)[C@H](Cc2ccc(-c3ccccc3)cc2)NC(=O)[C@H](C(C)C)NC(=O)[C@H](Cc2cccc(Cl)c2)NC(=O)[C@H](CC(=O)O)NC(=O)[C@H](Cc2ccc(OCC(=O)O)cc2)NC(=O)[C@H](Cc2ccc(OCC(=O)O)cc2)NC(=O)CSC[C@@H](C(=O)N[C@@H](C)C(N)=O)NC(=O)[C@H]([C@@H](C)O)NC(=O)[C@H](C(C)C)NC(=O)[C@H](CC2CCCCC2)NC(=O)[C@H](CCN)NC(=O)[C@@H](CC(C)C)NC(=O)[C@H](CCCN)NC1=O
0.0245

Value lookup for IC50; key = CC(C)C[C@H]1NC(=O)[C@H](CCCN)NC(=O)[C@H](C(C)C)NC(=O)[C@H](Cc2ccc(-c3ccccc3)cc2)NC(=O)[C@H](C(C)C)NC(=O)[C@H](Cc2c[nH]c3ccccc23)NC(=O)[C@H](CC(=O)O)NC(=O)[C@H](Cc2ccc(OCc3ccccc3)cc2)NC(=O)[C@H](CN)NC(=O)CSC[C@@H](C(=O)N[C@@H](C)C(N)=O)NC(=O)[C@H]([C@@H](C)O)NC(=O)[C@H](C(C)C)NC(=O)[C@H](CC2CCCCC2)NC(=O)[C@H](CCN)NC1=O
0.1

Value lookup for IC50; key = CC(C)C[C@H]1NC(=O)[C@H](CCCN)NC(=O)[C@H](CCC(=O)O)NC(=O)[C@H](Cc2ccc(-c3ccccc3)cc2)NC(=O)[C@H](C(C)C)NC(=O)[C@H](Cc2c[nH]c3ccccc23)NC(=O)[C@H](CC(=O)O)NC(=O)[C@H](Cc2ccc(C(=O)O)cc2)NC(=O)[C@H](Cc2ccncc2)NC(=O)CSC[C@@H](C(=O)N[C@@H](C)C(N)=O)NC(=O)[C@H]([C@@H](C)O)NC(=O)[C@H](C(C)C)NC(=O)[C@H](CC2CCCCC2)NC(=O)[C@H](Cc2c[nH]cn2)NC1=O
0.0202

Data provenance is patent US20250163104A1.
